molecular target: MC4-R (Homo sapiens, UniProt P32245); assay: cAMP Scintillation Proximity Assay in cells expressing MC4-R; settings: intercellular cAMP measured with SPA kit, read-out: in vitro potency (as measured by EC50 value)
Sequence (P32245 whole entry, species assumed): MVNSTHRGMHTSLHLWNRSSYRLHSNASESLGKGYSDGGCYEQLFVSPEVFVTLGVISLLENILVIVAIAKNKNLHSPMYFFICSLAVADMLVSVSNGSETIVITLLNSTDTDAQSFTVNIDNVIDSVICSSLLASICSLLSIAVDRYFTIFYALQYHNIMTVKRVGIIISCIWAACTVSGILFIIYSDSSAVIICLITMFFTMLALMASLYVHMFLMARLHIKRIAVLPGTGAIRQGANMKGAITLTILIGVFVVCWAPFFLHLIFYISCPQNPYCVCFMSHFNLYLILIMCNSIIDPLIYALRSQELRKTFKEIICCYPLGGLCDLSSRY
pEC50: −log10 of the molar value.

SMI	pEC50
C[C@@H]1[C@@H](N=C(Nc2ccc3c(c2)CCN(CCc2ccc(Cl)cc2Cl)C3=O)N2CCN[C@@H](C)C2)C[C@H]2C[C@@H]1C2(C)C	> 5.52

Data credit: patent US7456183B2
